Recorded values, source paper PMC11249646.

- target: CIB1 and αIIb interaction (CIB1-GST : F-αIIb peptide) (Homo sapiens)
- Construct: made in house; host or cells: BL-21 plus RIL cells (E. coli)
- Sequence (Q99828 1-191): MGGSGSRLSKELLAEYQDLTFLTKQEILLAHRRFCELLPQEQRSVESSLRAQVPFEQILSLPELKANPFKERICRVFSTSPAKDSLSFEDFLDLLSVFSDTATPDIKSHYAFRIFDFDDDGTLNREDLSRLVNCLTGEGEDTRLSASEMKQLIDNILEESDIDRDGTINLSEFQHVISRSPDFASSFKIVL
- experiment: FP assay, 1536-well qHTS format (primary and confirmatory screen)
- Assay type: binding
- condition.summary: qHTS primary screen of LOPAC/NPACT libraries; read-out: IC50
API: label(entry) gives t if the entry's IC50 is strictly smaller than 30 µM; on equality or larger values it gives f.

Past entries and their recorded results:
1. COc1ccc2c(c1)C(=O)N(CCc1ccc(S(=O)(=O)NC(=O)NC3CCCCC3)cc1)C(=O)C2(C)C | f
2. CC(NC(=O)CC(=O)O)c1nc2ccccc2c(=O)[nH]1 (stereo not drawn) | t
3. C=CCc1ccccc1OCC(O)CN[C@]1(C)CCC[C@H](C(C)(C)NC(=O)CBr)C1 (stereo partly drawn) | f
4. Cl.O=C(CCCCCN1CCN(c2ccccc2-c2ccccc2)CC1)NC1CCCc2ccccc21 (stereo not drawn) | t
5. C=CC/C=C\C/C=C\CCCCCCCc1cccc(O)c1C(=O)O | t

Then there is this compound:
IN: Input CC(C)(Sc1ccc(CCN(CCCCC2CCCCC2)C(=O)NC2CCCCC2)cc1)C(=O)O ; condition: IC50 strictly below 30 µM. Does it hold?
OUT: t
